- target desc: T1, human 5T4-His protein (human, UniProt Q13641 32-355)
- T1 construct: also called recombinant 5T4 protein (human 5T4-his tag); human 5T4 protein; not shown: His tag
- T1 sequence (looked up): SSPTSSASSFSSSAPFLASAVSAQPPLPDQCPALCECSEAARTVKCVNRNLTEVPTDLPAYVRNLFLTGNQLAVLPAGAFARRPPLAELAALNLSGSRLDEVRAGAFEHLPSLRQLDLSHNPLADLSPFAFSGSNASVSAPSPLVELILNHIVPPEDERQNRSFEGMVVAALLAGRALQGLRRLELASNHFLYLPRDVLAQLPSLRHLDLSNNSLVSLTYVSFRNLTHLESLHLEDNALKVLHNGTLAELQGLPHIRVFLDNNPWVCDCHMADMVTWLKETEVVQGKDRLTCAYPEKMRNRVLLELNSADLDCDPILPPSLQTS
- assay summary: SPR Biacore, Protein A capture
quantity name: kon
Returns: string containing the number followed by the unit.

- binder: "393E9_hVH6_hVL3 (antibody, V domains shown, humanized) VH: EVQLVESGGGLVQPGGSLRLSCAASGFTFTDYYMSWVRQAPGKGLEWVGFIRNKGNGYTTENSASVKGRFTISRDNAKSSLYLQMNSLRAEDTAVYYCARYRGNPHYAMDYWGQGTLVTVSS VL: DIQLTQSPSSLSASVGDRVTITCRASESVEFYGTSFLQWYQQKPGKAPKLLIYGASNVESGVPSRFSGSGSGTDFTLTISSLQPEDIATYFCQQSRKVPSTFGGGTKVEIK"
  reading: "179000 M⁻¹ s⁻¹"

Each of the following entries comes with a recorded value; kindly state kon for each.
1. 393E9_hVH1_hVL5 (antibody, V domains shown, humanized) VH: EVQLVESGGGLVQPGGSLRLSCAASGFTFTDYYMSWVRQAPGKGLEWVGFIRNKGNGYTTENSASVKGRFTISRDNSKSTLYLQMNSLRAEDTAVYYCARYRGNPHYAMDYWGQGTLVTVSS VL: EIVLTQSPGTLSLSPGERATLSCRASESVEFYGTSFLQWYQQKPGQAPRLLIYGASNVESGIPDRFSGSGSGTDFTLTISRLEPEDIAVYFCQQSRKVPSTFGGGTKVEIK
2. 393E9_hVH4_hVL5 (antibody, V domains shown, humanized; also called Hu393E9-45) VH: EVQLVESGGGLVQPGGSLRLSCAASGFTFTDYYMSWVRQAPGKGLEWVGFIRNKGNGYTTENSASVKGRFTISRDNSKSSLYLQMNSLKTEDTAVYYCARYRGNPHYAMDYWGQGTLVTVSS VL: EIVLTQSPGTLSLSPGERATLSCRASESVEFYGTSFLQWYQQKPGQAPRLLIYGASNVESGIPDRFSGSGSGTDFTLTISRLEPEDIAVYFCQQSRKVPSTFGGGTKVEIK
3. 393E9_hVH6_hVL5 (antibody, V domains shown, humanized) VH: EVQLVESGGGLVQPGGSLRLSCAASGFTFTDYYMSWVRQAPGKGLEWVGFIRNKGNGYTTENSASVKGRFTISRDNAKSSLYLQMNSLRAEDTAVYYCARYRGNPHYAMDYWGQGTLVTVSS VL: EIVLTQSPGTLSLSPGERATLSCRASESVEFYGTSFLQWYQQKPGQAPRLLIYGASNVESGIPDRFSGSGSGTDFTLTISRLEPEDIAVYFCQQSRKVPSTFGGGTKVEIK
4. 393E9_hVH4_hVL3 (antibody, V domains shown, humanized) VH: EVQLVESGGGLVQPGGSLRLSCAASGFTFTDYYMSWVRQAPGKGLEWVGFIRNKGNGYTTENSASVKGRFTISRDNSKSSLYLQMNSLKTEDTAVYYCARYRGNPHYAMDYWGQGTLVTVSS VL: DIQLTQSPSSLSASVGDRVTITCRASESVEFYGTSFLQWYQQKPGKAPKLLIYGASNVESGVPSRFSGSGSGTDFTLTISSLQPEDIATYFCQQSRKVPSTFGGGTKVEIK

1: 217000 M⁻¹ s⁻¹; 2: 217000 M⁻¹ s⁻¹; 3: 212000 M⁻¹ s⁻¹; 4: 181000 M⁻¹ s⁻¹

Each of the following entries comes with a recorded value; kindly state kon for each.
1. 393E9_hVH3_hVL3 (antibody, V domains shown, humanized) VH: QVQLVESGGGVVQPGGSLRLSCAASGFTFTDYYMSWVRQAPGKGLEWVGFIRNKGNGYTTENSASVKGRFTISRDNSKSTLYLQMNSLRAEDTAVYYCARYRGNPHYAMDYWGQGTLVTVSS VL: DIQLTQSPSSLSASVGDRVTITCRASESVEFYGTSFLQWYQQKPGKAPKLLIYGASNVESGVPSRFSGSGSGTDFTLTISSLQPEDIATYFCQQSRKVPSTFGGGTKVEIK
2. 393E9_hVH3_hVL1 (antibody, V domains shown, humanized) VH: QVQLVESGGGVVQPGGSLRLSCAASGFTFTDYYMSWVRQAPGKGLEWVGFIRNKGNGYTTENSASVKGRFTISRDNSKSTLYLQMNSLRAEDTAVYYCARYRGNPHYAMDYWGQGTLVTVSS VL: DIVLTQSPDSLAVSLGERATINCRASESVEFYGTSFLQWYQQKPGQPPKLLIYGASNVESGVPDRFSGSGSGTDFTLTISSLQAEDIAVYFCQQSRKVPSTFGGGTKVEIK
3. 393E9_hVH5_hVL5 (antibody, V domains shown, humanized) VH: EVQLVESGGGLVQPGRSLRLSCTASGFTFTDYYMSWVRQAPGKGLEWVGFIRNKGNGYTTENSASVKGRFTISRDNSKSILYLQMNSLKTEDTAVYYCARYRGNPHYAMDYWGQGTLVTVSS VL: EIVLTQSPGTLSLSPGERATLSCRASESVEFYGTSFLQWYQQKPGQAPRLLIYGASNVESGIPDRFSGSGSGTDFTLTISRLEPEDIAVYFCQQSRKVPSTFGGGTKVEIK
4. 393E9_hVH2_hVL4 (antibody, V domains shown, humanized) VH: EVQLVESGGGLIQPGGSLRLSCAASGFTFTDYYMSWVRQPPGKGLEWVGFIRNKGNGYTTENSASVKGRFTISRDNSKSTLYLQMNSLRAEDTAVYYCARYRGNPHYAMDYWGQGTLVTVSS VL: DIVLTQSPLSLPVTPGEPASISCRASESVEFYGTSFLQWYLQKPGQSPQLLIYGASNVESGVPDRFSGSGSGTDFTLKISRVEAEDIGVYFCQQSRKVPSTFGGGTKVEIK
5. 393E9_hVH4_hVL2 (antibody, V domains shown, humanized) VH: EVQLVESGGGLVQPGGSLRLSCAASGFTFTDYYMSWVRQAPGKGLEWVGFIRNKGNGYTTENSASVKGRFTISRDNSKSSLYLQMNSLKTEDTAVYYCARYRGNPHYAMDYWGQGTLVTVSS VL: EIVLTQSPATLSVSPGERATLSCRASESVEFYGTSFLQWYQQKPGQAPRLLIYGASNVESGIPARFSGSGSGTEFTLTISSLQSEDIAVYFCQQSRKVPSTFGGGTKVEIK

["193000 M⁻¹ s⁻¹", "213000 M⁻¹ s⁻¹", "202000 M⁻¹ s⁻¹", "195000 M⁻¹ s⁻¹", "204000 M⁻¹ s⁻¹"]
